- Test system: HCT-15 colon
- experiment.description: NCI tumour cell line growth inhibition, 48 h

molecule	TGI
CCOC(=O)c1cc2cc3c4c(c2oc1=O)CCCN4CCC3	> 100 µM
COc1ccc(C(c2c(O)c3ccccc3n(-c3ccccc3)c2=O)c2c(O)c3ccccc3n(-c3ccccc3)c2=O)cc1	> 100 µM
COc1ccc2c(=O)cc(-c3ccccc3)[nH]c2c1	> 100 µM
CS(=O)(=O)OCCN(CCOS(C)(=O)=O)c1ccc(C=Nc2cccc(Cl)c2)cc1	10 µM
C=CCNc1nc2c(s1)C(=O)c1ccccc1C2=O	30.7 µM
COc1ccc(-n2[nH]nc(C(N)=O)c2=O)cc1	> 100 µM
COC(=O)c1cc2c3ccccc3n3c(=O)c4cc5ccc(N(S(=O)(=O)c6ccc(C)cc6)S(=O)(=O)c6ccc(C)cc6)cc5nc4c(n1)c23	> 100 µM
COc1cc2c(c(OC)c1OC)-c1ncc3c(OC)c(OC)c(OC)cc3c1C2	> 100 µM
CCOC(=O)c1[nH]c(-c2[nH]c(-c3[nH]c(-c4[nH]c(C(=O)OCC)c(C)c4C(=O)OCC)c(C(=O)OCC)c3C)c(C)c2C(=O)OCC)c(C(=O)OCC)c1C	> 100 µM
C/C(=N\N=C(\N)SB(F)F)c1ccc2ccccc2c1	> 100 µM
NC1=C(NC(=O)Cc2ccccc2F)C(=O)c2ccccc2C1=O	> 100 µM
NCCSSCCN	> 100 µM
COc1cc(C2SCCCCCCCCCCSC(c3ccc(O)c(OC)c3)SCCCCCCCCCCS2)ccc1O (centres undefined)	> 100 µM
CC1CCC2(NC1)OC1CC3C4CC=C5CC(O)CCC5(C)C4CCC3(C)C1C2C (centres undefined)	> 100 µM
O=[N+]([O-])c1ccc2c(c1)N([O-])C1(CCCCC1)[N+]2=O	39.4 µM
O=C(Nc1cc(C(F)(F)F)ccc1Cl)c1ccc(NC2=C(Cl)C(=O)N(Cc3ccccc3)C2=O)cc1	> 100 µM
Cc1cc2/c(=C\c3ccc(N(C)C)cc3)c3ccccc3n2[n+]1C	34.7 µM
CC(=O)OC12C3C4C1C1C2C3C41OC(C)=O (centres undefined)	> 100 µM
Cc1nc(-c2ccccc2)n2nc(NCCCN3CCOCC3)ncc12	> 25 µM
O=C(Cc1nc2ccccc2c(=O)n1-c1ccccc1Cl)c1ccncc1	> 100 µM
CC(C)(C)OC(=O)N(CCCCNC(=O)OCc1ccccc1)CCCNC(=O)OCc1ccccc1	> 100 µM
c1ccc2c(c1)c1c(n2CCOCCN2CCCC2)CCCC1	31.2 µM
Cc1ccc(SC2C(=O)C3CC(OCc4ccccc4)C2(C)C3(C)C)cc1 (centres undefined)	> 100 µM
CC[n+]1oc(C(=O)c2ccc(Cl)cc2)c(-c2ccccc2)c1-c1ccccc1.[Cl][Fe]([Cl])([Cl])[Cl]	> 100 µM
O=C(/C=C/c1ccccc1)CSc1ncn[nH]1	> 100 µM
CO/N=C(/C)c1cccc(Nc2nc3ccccc3c3[nH]c4ccccc4c23)c1	23.6 µM
COc1ccc(N=NC(C(=O)c2ccccc2)C(=O)c2ccccc2)cc1	> 100 µM
Cc1cnc2sn(-c3ccc([N+](=O)[O-])cc3)c(=O)c2c1	> 100 µM
CCC[CH2][Sn]([Cl])([Cl])[CH2]CCC	2.24 µM
S=c1snc2n1CCN2	> 100 µM
COc1ccc(/C=C/C(=O)/C=C/c2cc3ccccc3[nH]c2=O)cc1	7.69 µM
[C](#Cc1ccccc1)[Hg][C]#Cc1ccccc1	43.7 µM
O=C(O)c1ccc(CI)cc1	39.8 µM
CC1=C[C@H]2c3c([nH]c4ccccc34)C(c3c[nH]c4ccccc34)[C@H]2CC1 (some centres undefined)	18.8 µM
CN(CCCCCl)P(=O)(OCCS(=O)(=O)CC(NC(=O)CCC(N)C(=O)O)C(=O)NC(C(=O)O)c1ccccc1)OCC1OC(n2ccc(N)nc2=O)C(F)(F)C1O (centres undefined)	> 100 µM
CCP(=O)(CC)C(Cl)Cl	> 100 µM
O=C(/C=C/c1ccc(-c2ccccc2)cc1)NCc1ccc(C(=O)NCc2ccccc2)cc1	> 100 µM
Cc1ccccc1OC(C)C(=O)NN1C(=O)CSC1c1ccc(Cl)cc1 (centres undefined)	> 100 µM
c1cc2c(s1)-c1sccc1C21OCCO1	> 100 µM
COc1cc(C(C)O)c(S(=O)(=O)CC(C)O)nn1 (centres undefined)	> 100 µM
C/C=C(/I)CBr	51.2 µM
COc1cc2nc(SCc3cc(OC)c(OC)c(OC)c3)n(Cc3ccccc3)c(=O)c2cc1OC	> 100 µM
O=c1cc(CO)oc2c3c(cc(O)c12)OCC(COC1OC(CO)C(O)C(O)C1O)=CC3 (centres undefined)	> 100 µM
Nc1[nH]nc(Nc2ccc(Cl)cc2)c1P(=O)(c1ccccc1)c1ccccc1	98.4 µM
